- System: SNB-75 CNS
- test: NCI tumour cell line growth inhibition, 48 h
Documented TGI across a set of molecules
Please reply with the bare figure in µM and do not write the unit itself.

- molecule: "COc1ccc(C(=O)c2cc3c(OC)c(OC)c(OC)cc3[nH]2)cc1"
  TGI (µM): 28.5
- molecule: "O=C(c1ccco1)c1c(C(F)(F)F)n([O-])c2ccccc2[n+]1=O"
  TGI (µM): 25.1

Q: Entry under review: CC[C@H](C)[C@H]1NC(=O)[C@@H](NC(=O)[C@@H](CC(C)C)N(C)CC2CCCN2C(=O)C(C)=O)[C@@H](C)OC(=O)[C@H](Cc2ccc(OC)cc2)N(C)C(=O)C2CCCN2C(=O)[C@H](CC(C)C)NC(=O)[C@@H](C)C(=O)[C@H](C(C)C)OC(=O)C[C@@H]1O (some centres undefined) . Reported TGI?
Result: 0.0108

Q: Param item: "Cc1ccc(N2CCc3c(C)c(C#N)c4nc5ccccc5n4c32)cc1"
Result: 62

Q: Param item: "C=C1C(=O)O[C@H]2[C@H]1CC/C(COC(=O)NCCc1c[nH]c3ccc(OC)cc13)=C\CC[C@@]1(C)O[C@@H]21"
Result: 21.7

Q: Param item: "Cc1cc(-c2nc3ccccc3s2)ccc1NC(=O)[C@H](C)N"
Result: 26.1

Q: Param item: "COc1ccccc1/C=N\N=C(N/N=C/c1ccccc1OC)N/N=C/c1ccccc1OC"
Result: 9.4

Q: Param item: Cc1cccc(NC(=O)C(=O)C(C(=O)c2ccccc2F)C2OC(=O)c3ccccc32)c1Cl (centres undefined)
Result: 64.2

----------
- System: NCI-H460 lung
- test: NCI tumour cell line growth inhibition, 48 h
Where a SMILES comes first, the peptide text is derived from it. The star is where a group is joined. Boc = CC(C)(C)OC(=O)*; OBn = c1ccc(CO*)cc1
Documented TGI across a set of compounds

Take a look at these entries with their results.
- compound: "O=C(OCc1ccccc1)C1(N2CN(C3(C(=O)OCc4ccccc4)CCCC3)CN(C3(C(=O)OCc4ccccc4)CCCC3)C2)CCCC1"
  subject-of-test: "NCI-H460 lung"
  TGI: "> 10 µM"
- compound: "CN(NC(=O)CCCl)C1=NCCCCN1"
  subject-of-test: "NCI-H460 lung"
  TGI: "> 100 µM"
- compound: "Cc1ccc(C(C2C(=O)N(C)C(=O)N(C)C2=O)C(F)(F)C(=O)N(C)C)cc1 (stereo not drawn)"
  subject-of-test: "NCI-H460 lung"
  TGI: "> 100 µM"
- compound: "CO[C@@H]1/C=C(C)/C=C/[C@@H](C)/C=C(\\C)C(=O)OC(/C(C)=C/C=C(\\C)CNC(=O)[C@H](CO)NC=O)[C@@H](C)/C=C/C=C/[C@H](OC)CC/C=C(C)/C=C/C1 (stereo partly drawn)"
  subject-of-test: "NCI-H460 lung"
  TGI: "5.81 µM"

Q: Entry under review: "O=C1COc2ccc([N+](=O)[O-])cc2C(=O)C1" . Reported TGI?
Result: > 10 µM

Q: Param item: "O=[Se](=O)c1ccccc1.O=[Se](=O)c1ccccc1.[Cu]"
Result: 20 µM

Q: Param item: CC(NC(=O)C(NC(=O)OC(C)(C)C)C(C)C)C(=O)N1CCCC1C(=O)NCC(=O)NC(C(=O)NCC(=O)OCc1ccccc1)C(C)C (stereo not drawn) (Boc-VAPGVG-OBn; configuration not given here)
Result: > 100 µM

Q: Param item: "O=C(O)c1cc2cc(OCc3ccccc3)c(OCc3ccccc3)cc2[nH]1"
Result: 33.4 µM

The measurements presented in this section are drawn from PubChem BioAssay (NCI).
